System: Mycobacterium smegmatis ATCC 607
experiment: Antimicrobial activity, agar plate-cylinder method, bleomycin A2 as standard (1,000 u/mg)
Assay type: cell-based
experimental.context: Table 5; copper-free form; relative to bleomycin A2 = 1,000 u/mg
readout.kind: Antimicrobiral potency

- compound: "Cc1c(N)nc(C(CC(N)=O)NCC(N)C(N)=O)nc1C(=O)NC(C(=O)NC(C)C(O)C(C)C(=O)NC(C(=O)NCCc1nc(-c2nc(C(=O)NCCCN(C)CCCNCc3ccccc3)cs2)cs1)C1(O)CC1)C(OC1OC(CO)C(O)C(O)C1OC1OC(CO)C(O)C(OC(N)=O)C1O)c1cnc[nH]1 (centres unmarked)"
  system.tested: "Mycobacterium smegmatis ATCC 607"
  Antimicrobiral potency: "7,660 u/mg"

Could you now consider this next compound?
Enquiry: Can you look up the measured Antimicrobiral potency of COCCCNCCCNC(=O)c1csc(-c2csc(CCNC(=O)C(NC(=O)C(C)C(O)C(C)NC(=O)C(NC(=O)c3nc(C(CC(N)=O)NCC(N)C(N)=O)nc(N)c3C)C(OC3OC(CO)C(O)C(O)C3OC3OC(CO)C(O)C(OC(N)=O)C3O)c3cnc[nH]3)C3(O)CC3)n2)n1 (centres unmarked) for me?
Return: 1,869 u/mg

----------
Tested on: Mycobacterium smegmatis ATCC 607
experiment: Antimicrobial activity, agar plate-cylinder method, bleomycin A2 as standard (1,000 u/mg)
Type: cell-based
experimental.context: Table 5; copper-free form; relative to bleomycin A2 = 1,000 u/mg
readout.kind: Antimicrobiral potency

Enquiry: Can you look up the measured Antimicrobiral potency of Cc1c(N)nc(C(CC(N)=O)NCC(N)C(N)=O)nc1C(=O)NC(C(=O)NC(C)C(O)C(C)C(=O)NC(C(=O)NCCc1nc(-c2nc(C(=O)NCCCNCCCN3CCOCC3)cs2)cs1)C1(O)CC1)C(OC1OC(CO)C(O)C(O)C1OC1OC(CO)C(O)C(OC(N)=O)C1O)c1cnc[nH]1 (stereo not shown) for me?
Return: 1,715 u/mg

----------
System: Mycobacterium smegmatis ATCC 607
experiment: Antimicrobial activity, agar plate-cylinder method, bleomycin A2 as standard (1,000 u/mg)
Assay type: cell-based
experimental.context: Table 5; copper-free form; relative to bleomycin A2 = 1,000 u/mg
Assignment: determine reported Antimicrobiral potency for the given compounds.

Worked examples follow.
- compound: "Cc1c(N)nc(C(CC(N)=O)NCC(N)C(N)=O)nc1C(=O)NC(C(=O)NC(C)C(O)C(C)C(=O)NC(C(=O)NCCc1nc(-c2nc(C(=O)NCCCN3CCOCC3)cs2)cs1)C1(O)CC1)C(OC1OC(CO)C(O)C(O)C1OC1OC(CO)C(O)C(OC(N)=O)C1O)c1cnc[nH]1 (centres unmarked) [compound 24, 3-morpholinopropylaminocleomycin]"
  Antimicrobiral potency: "800 u/mg"
- compound: "Cc1c(N)nc(C(CC(N)=O)NCC(N)C(N)=O)nc1C(=O)NC(C(=O)NC(C)C(O)C(C)C(=O)NC(C(=O)NCCc1nc(-c2nc(C(=O)NCCCCN)cs2)cs1)C1(O)CC1)C(OC1OC(CO)C(O)C(O)C1OC1OC(CO)C(O)C(OC(N)=O)C1O)c1cnc[nH]1 (centres unmarked) [compound 5, 4-aminobutylaminocleomycin]"
  Antimicrobiral potency: "1,935 u/mg"
- compound: "Cc1c(N)nc(C(CC(N)=O)NCC(N)C(N)=O)nc1C(=O)NC(C(=O)NC(C)C(O)C(C)C(=O)NC(C(=O)NCCc1nc(-c2nc(C(=O)NCCCN)cs2)cs1)C1(O)CC1)C(OC1OC(CO)C(O)C(O)C1OC1OC(CO)C(O)C(OC(N)=O)C1O)c1cnc[nH]1 (centres unmarked) [compound 4, 3-aminopropylaminocleomycin]"
  Antimicrobiral potency: "2,150 u/mg"
- compound: "Cc1c(N)nc(C(CC(N)=O)NCC(N)C(N)=O)nc1C(=O)NC(C(=O)NC(C)C(O)C(C)C(=O)NC(C(=O)NCCc1nc(-c2nc(C(=O)NCCNCC(C)O)cs2)cs1)C1(O)CC1)C(OC1OC(CO)C(O)C(O)C1OC1OC(CO)C(O)C(OC(N)=O)C1O)c1cnc[nH]1 (centres unmarked) [compound 12]"
  Antimicrobiral potency: "2,280 u/mg"

Could you now consider this next compound?
Enquiry: Can you look up the measured Antimicrobiral potency of Cc1c(N)nc(C(CC(N)=O)NCC(N)C(N)=O)nc1C(=O)NC(C(=O)NC(C)C(O)C(C)C(=O)NC(C(=O)NCCc1nc(-c2nc(C(=O)NCCCNCCCN3CCCC3)cs2)cs1)C1(O)CC1)C(OC1OC(CO)C(O)C(O)C1OC1OC(CO)C(O)C(OC(N)=O)C1O)c1cnc[nH]1 (centres unmarked) [compound 26] for me?
Return: 3,590 u/mg
